B1: SPSB1 (parent)
chain: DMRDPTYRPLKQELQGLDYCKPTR

Variants of: B1
assay-notes: protein stability index of a GFP-peptide fusion (GPS, HEK-293T) (PSI 1-6); higher = more stable;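 also: lentivirally expressed fusions sorted by FACS into six bins by GFP to DsRed ratio, PSI derived from sequencing read proportions per bin multiplied by bin number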
recorded-conditions: c terminus: a fixed tail appended
Group membership follows protein stability index per the scheme low interval = under 3, middle interval = from 3 up to 4, high interval = 4 and over

Some solved entries appear below for comparison.
- variant-designation: "D1W"
  label-class: "low interval"
- variant-designation: "D18Q"
  label-class: "middle interval"
- variant-designation: "Y19P"
  label-class: "high interval"
- variant-designation: "T23D"
  label-class: "low interval"
- variant-designation: "T6N"
  label-class: "middle interval"

**Q:** The entry to classify is C20G ; which class holds it?
**A:** high interval

**Q:** Can you check R24S next?
**A:** middle interval

**Q:** Can you check T6R next?
**A:** middle interval

**Q:** Can you check P9L next?
**A:** low interval
